Test system: Enterobacteriaceae
protocol-description: Antimicrobial activity against Aerobacter 2826 by agar dilution method
Type: functional
readout-name: MIC (µg/mL)

CO[C@@]1(NC(=O)Cc2cccs2)C(=O)N2C(C(=O)O)=C(COC(N)=O)CS[C@@H]21 :: 0.78

(a) Cn1nnnc1SCC1=C(C(=O)O)N2C(=O)[C@@H](NC(=O)C(O)c3ccccc3)[C@H]2CC1 (mixture of isomers)
(b) CO[C@@]1(NC(=O)Cc2cccs2)C(=O)N2C(C(=O)O)=C(COC(N)=O)CC[C@@H]21 (racemic)
For the pair a and b , which member has the lower MIC number? In your reply, give the label of the chosen option.
a
